FYI, the data here is from ChEMBL document CHEMBL4819135.

- EXPERIMENTAL DETAILS: Antiviral activity against HIV-2 ROD infected in human MT4 cells assessed as protection against virus-induced cytotoxicity incubated for 5 days by MTT assay
- Assay type: functional, cell-based
- CONDITION LABEL: HIV-2, ISOLATE ROD, MT4, 120 h
pEC50: −log10 of the molar value.
// values below are reported pEC50

Here is how some compounds turned out for pEC50.
Cc1cc(C#N)cc(C)c1Oc1nc(Nc2ccc(C#N)cc2)ncc1-c1ccsc1 :: < 5.41
Cc1cc(C)cc(-c2cnc(Nc3ccc(C#N)cc3)nc2Oc2c(C)cc(C#N)cc2C)c1 :: < 4.41
Cc1cc(C#N)cc(C)c1Oc1nc(Nc2ccc(C#N)cc2)ncc1-c1ccc(Cl)cc1 :: < 4.14
COc1ccc(-c2cnc(Nc3ccc(C#N)cc3)nc2Oc2c(C)cc(C#N)cc2C)cc1 :: < 3.55

Then this compound:
Entry under review: Cc1cc(C#N)cc(C)c1Oc1nc(Nc2ccc(C#N)cc2)ncc1-c1ccc2ccccc2c1 . Reported pEC50?
< 5.07

----------
Below, each of the compounds is paired with its reported CC50 at 120 h value.
- EXPERIMENTAL DETAILS: Cytotoxicity against human MT4 cells assessed as reduction in cell viability after 5 days by MTT assay
- Format: cell-based
- CONDITION LABEL: time 5 day
Entry rule: numbers only, all in µM.

Cc1ccc(-c2cnc(Nc3ccc(C#N)cc3)nc2Oc2c(C)cc(C#N)cc2C)cc1 :: 26.1

Request the reported CC50 at 120 h associated with Cc1cc(C#N)cc(C)c1Oc1nc(Nc2ccc(C#N)cc2)ncc1-c1ccc(F)cc1
42.7

----------
- TESTED ON: Human immunodeficiency virus type 1 reverse transcriptase (Human immunodeficiency virus 1)
- EXPERIMENTAL DETAILS: Inhibition of wild type HIV-1 reverse transcriptase assessed as reduction in biotin-dUTP incorporation in presence of template-primer incubated for 60 mins followed by transferring to streptavidin-coated plate and further incubation for 60 mins by ELISA
QUANTITY KIND: IC50 (nM)
Write the answer as a number in nM, unit excluded.

What value of measured IC50 is listed for Cc1cc(C#N)cc(C)c1Oc1nc(Nc2ccc(C#N)cc2)ncc1-c1ccncc1 ?
570

----------
- EXPERIMENTAL DETAILS: Antiviral activity against HIV-2 ROD infected in human MT4 cells assessed as protection against virus-induced cytotoxicity incubated for 5 days by MTT assay
- Assay type: functional, cell-based
- CONDITION LABEL: HIV-2, ISOLATE ROD, MT4, 120 h
pEC50: −log10 of the molar value.
QUANTITY KIND: pEC50

Completed entries (count: 4):
Cc1cc(C#N)cc(C)c1Oc1nc(Nc2ccc(C#N)cc2)ncc1-c1ccc(F)cc1 :: < 4.37
Cc1cc(C#N)cc(C)c1Oc1nc(Nc2ccc(C#N)cc2)ncc1-c1cccnc1 :: < 4.87
Cc1cc(C#N)cc(C)c1Oc1nc(Nc2ccc(C#N)cc2)ncc1-c1ccccc1 :: < 4.50
Cc1cc(C#N)cc(C)c1Oc1nc(Nc2ccc(C#N)cc2)ncc1-c1cccs1 :: < 5.19

Dear colleague, I am looking for the recorded pEC50 of the following molecule: Cc1cc(C#N)cc(C)c1Oc1nc(Nc2ccc(C#N)cc2)ncc1-c1ccoc1
< 5.30

----------
- EXPERIMENTAL DETAILS: Antiviral activity against HIV-2 ROD infected in human MT4 cells assessed as protection against virus-induced cytotoxicity incubated for 5 days by MTT assay
- Type: functional, cell-based
- CONDITION LABEL: HIV-2, ISOLATE ROD, MT4, 120 h
Overview of recorded EC50 for various molecules

Study these solved cases before continuing.
Cc1cc(C#N)cc(C)c1Oc1nc(Nc2ccc(C#N)cc2)ncc1-c1ccc(-c2ccccc2)cc1 :: > 253 µM
Cc1cc(C#N)cc(C)c1Oc1nc(Nc2ccc(C#N)cc2)ncc1-c1cncnc1 :: > 298 µM
Cc1cc(C#N)cc(C)c1Oc1nc(Nc2ccc(C#N)cc2)ncc1-c1ccc(N)cc1 :: > 0.31 µM

Please find the next molecule below.
I have this molecule here, Cc1cc(C#N)cc(C)c1Oc1nc(Nc2ccc(C#N)cc2)ncc1-c1ccncc1 , and I need its recorded EC50.
> 27.9 µM
